Tested on: MGC-803
test method notes: Antiproliferative activity against human MGC-803 cells assessed as cell growth inhibition after 72 hrs by SRB assay
Type: functional, cell-based
measurement context: MGC-803, 72 h
metric name: IC50

Requested read-out: IC50. Entry: `COc1ccc(/C=C\c2cc(OC)c(OC)c(OC)c2)cc1OCC(=O)Nc1ccccc1N` > 5000 nM

Then `COc1ccc(/C=C\c2cc(OC)c(OC)c(OC)c2)cc1OCCCCC(=O)Nc1ccccc1N` ? > 5000 nM

Same lookup for `COc1ccc(/C=C\c2cc(OC)c(OC)c(OC)c2)cc1OCCCC(=O)NO` , please. 63 nM

Same question, `COc1ccc(C(=O)c2cc(OC)c(OC)c(OC)c2)cc1OCCCCC(=O)NO` this time > 5000 nM

// same read-out, input: `COc1ccc(/C=C\c2cc(OC)c(OC)c(OC)c2)c(/C=C/C(=O)Nc2ccccc2N)c1` 301 nM

Moving on to `COc1ccc(/C=C\c2cc(OC)c(OC)c(OC)c2)cc1/C=C/C(=O)NO` 208 nM

Moving on to `COc1ccc(/C=C\c2cc(OC)c(OC)c(OC)c2)cc1OCCCC(=O)Nc1ccccc1N` > 5000 nM

Ok, now `COc1ccc(C(=O)c2cc(OC)c(OC)c(OC)c2)cc1OCC(=O)Nc1ccccc1N` > 5000 nM

Now consider `COc1ccc(C(=O)c2cc(OC)c(OC)c(OC)c2)cc1OCCCCC(=O)Nc1ccccc1N` and answer again. > 5000 nM
